System: Alternaria solani
ASSAY: Microtiter test, activity against Alternaria solani (Use Example 4)
Type: cell-based
CONDITION SET: 7 days
I'd be grateful if you could share measured Observed efficacy for these entries.
Numbers only, in %.

Below, 3 compounds whose answers are already recorded.
> print(dat)
                                   compound        metric.name  endpoint.result
1  Cc1nn(C)c(F)c1C(=O)Nc1ccccc1C(C)CC(C)C (stereo not shown)  Observed efficacy                0
2  Cn1cc(C(=O)Nc2ccc(F)cc2-c2ccc(Cl)c(Cl)c2)c(C(F)F)n1  Observed efficacy                0
3  CC(C)C1C2CCC1c1c(NC(=O)c3cn(C)nc3C(F)F)cccc12 (stereo not shown)  Observed efficacy                2

Next, consider the following compound.
For Cn1cc(C(=O)Nc2ccccc2-c2cc(F)c(F)c(F)c2)c(C(F)F)n1 , what is its reported Observed efficacy? 29
